kon reference
- systemTested: T1, soluble human ILT4-ECD (human, UniProt Q8N423 22-460)
- T1 construct: also called LILRB2 extracellular domain
- T1 sequence (Q8N423 other isoform, or with tags, fused parts or gaps): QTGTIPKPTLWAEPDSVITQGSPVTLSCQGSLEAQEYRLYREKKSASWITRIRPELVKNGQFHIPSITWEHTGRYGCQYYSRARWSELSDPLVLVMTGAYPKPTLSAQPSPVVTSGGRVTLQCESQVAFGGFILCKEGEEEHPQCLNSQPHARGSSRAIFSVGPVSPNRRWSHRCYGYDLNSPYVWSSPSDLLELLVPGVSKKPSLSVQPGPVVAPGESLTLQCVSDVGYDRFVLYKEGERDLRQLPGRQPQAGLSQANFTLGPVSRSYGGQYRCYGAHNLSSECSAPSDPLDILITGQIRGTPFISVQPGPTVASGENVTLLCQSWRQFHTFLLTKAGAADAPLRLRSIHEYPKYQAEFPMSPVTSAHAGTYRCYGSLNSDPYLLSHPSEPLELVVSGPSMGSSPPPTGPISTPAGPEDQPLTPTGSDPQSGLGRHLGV
- measurementDescription: SPR (Biacore), antibody captured on Protein A chip, soluble ILT-ECD injected (1.6-200 nM), 25 C
Give the quantity in M⁻¹ s⁻¹, number only.

Answered cases to consult:
- binder: "anti-ILT2/ILT4 antibody 51A1 (antibody, V domains shown, Mouse hybridoma antibody) VH: EVQLVESGGGLVQPKGSLKLSCAASGFTFNTYAMHWVRQAPGKGLEWVARIRSKSSNYATYYADSVKDRFTISRDDSQSMLYLQMNNLKTEDTAMYYCVRDGIYYYGTMYYYAMDYWGQGTSVTVSS VL: NIVLTQSPASLAVSLGQRATISCRASESVDYYGNSFMYWYQQKPGQPPKLLIYFASNLESGVPARFSGSGSRTDFTLTIDPVEAADAASYYCQQNNEDPWTFGGGTKLEIK"
  kon / M⁻¹ s⁻¹: 68000
- binder: "anti-ILT4 antibody 47C8 (antibody, V domains shown, Mouse hybridoma antibody) VH: EVQLQQSGPDLVKPGASVKISCKASGYSFTGYYMHWVKQSHGKSLEWIGRVYPNNGDTSYNQKFKVKAILTVDKSSSTAYMELRSLTSEDSAVYYCARGATVVESLFAYWGQGTLVTVSA VL: DIVLTQSPASLAVSLGQRATISCRASESVDNYGNNFLHWYQQKPGQPPKLLIYRTSNLESGIPARFSGSGSRTDFTLTINPVEADDVATYYCQQSNEDPYTFGGGTKLEIK"
  kon / M⁻¹ s⁻¹: 340000
- binder: "anti-ILT2/ILT4 antibody 47H6 (antibody, V domains shown, Mouse hybridoma antibody) VH: EVQLQQSGPELVKPGASVKISCKASGYTFTDYYMNWVKQSHGKSLEWIGDFNPNNGGTTYNQKFEGKATLTVDKSSNTAYMDLRSLTSEDSAVYYCARGRFYYGSLYSFDYWGQGTTLTVSS VL: DIQMTQSPASLSASVGETVTITCRASGNIHNYLAWYQQKQGKSPHLLVYNAKTLADGVPSRFSGSGSGTQYSLKINNLQPEDFGSYYCQHFWTSITFGAGTKLDLK"
  kon / M⁻¹ s⁻¹: 37000

Now for another entry.
Give the value of kon reported for the following: anti-ILT2/ILT4 antibody 73D1 (antibody, V domains shown, Mouse hybridoma antibody; Shares its light chain variable region with 73C4) VH: AVQLQQSGPELVKPGASVKISCKASGYTFTDYYINWVKQSHGKSLQWIGNVNPNDGGTTYNQKFKGKATLTVDKSSSTAYMELRSLTSEDSAVYYCARREIYFYGTIYYYAMDYWGQGTSVTVSS VL: DIVLTQSPASLAVSLGQRATISCRASESVDYYGNSFMYWYQQKPGRPPNLLIYFASNLESGVPARFSGSGSRTDFTLTIDPVEADDAATYYCQQNNEDPWTFGGGTKLEIK
300000

Data provenance: patent US20240025997A1
